system: SF-268; test: NCI tumour cell line growth inhibition, 48 h
Activity calls are given as the source filed them. No stated cut-off is given here; in the data, active = GI50 up to about 1.1 µM and inactive = higher.
parameter measured: GI50

INSERT INTO measurements (compound, result) VALUES
  ('CCOC(=O)C(NC(=O)Nc1ccc(Cl)c(Cl)c1)C(F)(F)F (stereo not given)', '> 100 µM (inactive)'),
  ('O=c1[nH]c(Br)nc2[nH]nnc12', '11 µM (inactive)'),
  ('O=C(NC1C=CCC2C(=O)N(c3ccccc3)C(=O)C12)OCc1ccccc1 (stereo not given)', '> 100 µM (inactive)'),
  ('CC1=N[C@](C)(C2CC3C=CC2C3=O)COC1=O (stereo not given in full)', '> 100 µM (inactive)'),
  ('N#CCc1c(F)c(F)c(F)c(F)c1F', '> 100 µM (inactive)');
